Kindly supply the reported IC50 values for the records listed here.
Tested on: LNCaP
Assay: Antiproliferative activity against human LNCAP cells assessed as reduction in cell growth incubated for 96 hrs by propidium iodide based 2D monolayer assay
Type: functional
Unit µM implied. Number only.

Would you kindly share the measured IC50 for CC(O)(CS(=O)(=O)c1ccc(F)cc1)C(=O)Nc1cccc(S(F)(F)(F)(F)F)c1 (racemic) ?
32.6

Recorded IC50 for CC(O)(COc1ccc(C#N)cc1C(F)(F)F)C(=O)Nc1cccc(S(F)(F)(F)(F)F)c1 (racemic) , please?
16.4

Please look up its IC50: CC(O)(COc1cccc(S(F)(F)(F)(F)F)c1)C(=O)Nc1cc(C(F)(F)F)cc(C(F)(F)F)c1 (racemic)
3

Given CC(O)(CS(=O)(=O)c1ccccc1C(F)(F)F)C(=O)Nc1cccc(S(F)(F)(F)(F)F)c1 (racemic) , state its recorded IC50.
24.9

----------
Assay: Protein binding in human plasma
Type: ADME, cell-free
Details: read-out: PPB (converted)
metric_name: fraction unbound
Please state the value as a number alone, without comment.

State the recorded fraction unbound for this entry: C[C@](O)(CS(=O)(=O)c1ccc(F)cc1)C(=O)Nc1ccc(C#N)c(C(F)(F)F)c1 [(R)-BICALUTAMIDE]
0.02

----------
Provide the recorded T/C for the entries that follow.
System: VCaP
Assay: Antiproliferative activity against human VCaP cells assessed as T/C value at 3.2 x 10^-3 uM incubated for 96 hrs by propidium iodide based 2D monolayer assay
Assay type: functional
Give the value in % but do not write % after it.

For the molecule CC(O)(COc1cc(C(F)(F)F)cc(C(F)(F)F)c1)C(=O)Nc1cccc(S(F)(F)(F)(F)F)c1 (racemic) , what T/C is on record?
97

Entry CC1(C)C(=O)N(c2ccc(C#N)cc2C(F)(F)F)C(=S)N1c1cccc(S(F)(F)(F)(F)F)c1 : reported T/C = ?
106

Give its T/C value. Item: CC(O)(COc1cccc(S(F)(F)(F)(F)F)c1)C(=O)Nc1cc(C(F)(F)F)cc(C(F)(F)F)c1 (racemic)
111

Look at this molecule and give its reported T/C. CC1(C)C(=O)N(c2cccc(S(F)(F)(F)(F)F)c2)C(=S)N1c1cccc(C(F)(F)F)c1
104

Given CC(O)(COc1cc(C(F)(F)F)cc(C(F)(F)F)c1)C(=O)Nc1ccc(S(F)(F)(F)(F)F)cc1 (racemic) , state its recorded T/C.
101

Which value of T/C has been reported for CNC(=O)c1ccc(N2C(=S)N(c3ccc(C#N)c(C(F)(F)F)c3)C(=O)C2(C)C)cc1F [ENZALUTAMIDE] in the records?
106

Reported T/C for CC(O)(COc1ccc(C(F)(F)C(F)(F)F)cc1)C(=O)Nc1cc(C(F)(F)F)cc(C(F)(F)F)c1 (racemic) : what is it?
76

----------
Test system: LNCaP
Experiment: Antiproliferative activity against human LNCAP cells assessed as reduction in cell growth incubated for 96 hrs by propidium iodide based 2D monolayer assay
Assay type: functional
So basically, the class depends on measured IC50, and the ranges are low group: < 10 µM; middle group: ≥ 10 µM and < 20 µM; high group: ≥ 20 µM

Could you tell me which band CC(O)(CSc1ccccc1C(F)(F)F)C(=O)Nc1cccc(S(F)(F)(F)(F)F)c1 (racemic) belongs to?
middle group

Kindly state the category for this molecule: CC(O)(COc1cccc(C(F)(F)F)c1)C(=O)Nc1ccc(S(F)(F)(F)(F)F)cc1 (racemic)
high group

Hello team, could you let me know which band the following molecule falls into: CC1(C)C(=O)N(c2ccc(S(F)(F)(F)(F)F)cc2)C(=S)N1c1cccc(C(F)(F)F)c1
low group

# bin label for CC(O)(CS(=O)(=O)c1cc(C(F)(F)F)cc(C(F)(F)F)c1)C(=O)Nc1cccc(S(F)(F)(F)(F)F)c1 (racemic)
low group

Bin? CC(O)(CSc1cccc(S(F)(F)(F)(F)F)c1)C(=O)Nc1ccc(S(F)(F)(F)(F)F)cc1 (racemic)
high group

Class (by measured IC50) for CC(O)(COc1ccc(OC(F)(F)F)cc1)C(=O)Nc1ccc(S(F)(F)(F)(F)F)cc1 (racemic)
middle group

# classify by IC50 band: CC(O)(CSc1cccc(S(F)(F)(F)(F)F)c1)C(=O)Nc1ccc(C#N)cc1C(F)(F)F (racemic)
middle group

Textbook exercise: identify the category of the molecule given here, CC(O)(CS(=O)(=O)c1cccc(S(F)(F)(F)(F)F)c1)C(=O)Nc1cccc(S(F)(F)(F)(F)F)c1 (racemic) , according to its measured value.
middle group

Categorize the following entry: CC(O)(COc1cccc(OC(F)(F)F)c1)C(=O)Nc1cccc(S(F)(F)(F)(F)F)c1 (racemic)
middle group

Form field 'band' for CC(O)(COc1ccc(S(F)(F)(F)(F)F)cc1)C(=O)Nc1ccc([N+](=O)[O-])cc1C(F)(F)F (racemic)
middle group

Which of the defined bands does the recorded IC50 of CC(O)(CSc1ccc(F)cc1)C(=O)Nc1ccc(S(F)(F)(F)(F)F)cc1 (racemic) sit within?
middle group

Lab note: sort CC(O)(CS(=O)(=O)c1ccc(OC(F)(F)F)cc1)C(=O)Nc1ccc(S(F)(F)(F)(F)F)cc1 (racemic) into the matching IC50 band.
high group

Lab note: sort CC(O)(CS(=O)(=O)c1ccc(S(F)(F)(F)(F)F)cc1)C(=O)Nc1ccc(S(F)(F)(F)(F)F)cc1 (racemic) into the matching IC50 band.
high group

Kindly identify the class of CC1(C)C(=O)N(c2ccc(C#N)cc2C(F)(F)F)C(=S)N1c1ccc(S(F)(F)(F)(F)F)cc1 .
low group

Hi, small favor: classify CC(O)(COc1ccc(C(F)(F)F)cc1)C(=O)Nc1cccc(S(F)(F)(F)(F)F)c1 (racemic) by its IC50 when you get a moment.
low group

Where would CC1(C)C(=O)N(c2ccc([N+](=O)[O-])cc2C(F)(F)F)C(=S)N1c1ccc(S(F)(F)(F)(F)F)cc1 land among the classes by reported IC50?
high group
